# Assay remarks: physchem
# Particulars: 1:1 MeOH/H2O solution
Measured endpoint: remaining at 168 h

Enquiry: Determine from records and report remaining at 168 h for CC(C)(C)C[C@@H]1N[C@@H](C(=O)N[C@H]2CC[C@H](O)CC2)[C@H](c2cccc(Cl)c2F)[C@]12C(=O)Nc1cc(Cl)ccc12 [SAR-405838]
Return: 93 to 96%

###

Each entry below carries its recorded AUC.
# Assay remarks: in vivo
# Particulars: rat, iv, 10 mg/kg
Entry rule: numbers only, all in ng·h/mL.

# Compound structure string, AUC (ng·h/mL)
records = [
    ("CN1[C@@H](C(=O)NC23CCC(C(=O)O)(CC2)CC3)[C@H](c2cccc(Cl)c2F)[C@]2(C(=O)Nc3cc(Cl)ccc32)C12CCCCC2", 28800),
]

Enquiry: Determine from records and report AUC for CC1(C)CCC2(CC1)N[C@@H](C(=O)Nc1ccc(C(=O)O)cc1)[C@H](c1cccc(Cl)c1F)[C@]21C(=O)Nc2cc(Cl)ccc21
Return: 14800

Enquiry: Determine from records and report AUC for O=C(NC12CCC(C(=O)O)(CC1)CC2)[C@@H]1NC2(CCCCC2)[C@@]2(C(=O)Nc3cc(Cl)ccc32)[C@H]1c1cccc(Cl)c1F
Return: 82200

Enquiry: Determine from records and report AUC for CCN1[C@@H](C(=O)NC23CCC(C(=O)O)(CC2)CC3)[C@H](c2cccc(Cl)c2F)[C@]2(C(=O)Nc3cc(Cl)ccc32)C12CCCCC2
Return: 38300

Enquiry: Determine from records and report AUC for O=C(O)c1ccc(NC(=O)[C@@H]2NC3(CCCCC3)[C@@]3(C(=O)Nc4cc(Cl)ccc43)[C@H]2c2cccc(Cl)c2F)cc1
Return: 8630

###

Each entry below carries its recorded IC50.
# System: SAOS-2
# Assay remarks: cells
# Particulars: Homo sapiens
Entry rule: numbers only, all in µM.

# Compound structure string, Measured endpoint, Observed
rows = [
    ("O=C(NC12CCC(C(=O)O)(CC1)CC2)[C@@H]1NC2(CCCCC2)[C@@]2(C(=O)Nc3cc(Cl)ccc32)[C@H]1c1cccc(Cl)c1F", "IC50", 26.7),
]

Enquiry: Determine from records and report IC50 for CCN1[C@@H](C(=O)NC23CCC(C(=O)O)(CC2)CC3)[C@H](c2cccc(Cl)c2F)[C@]2(C(=O)Nc3cc(Cl)ccc32)C12CCCCC2
Return: 22.7

###

# Assay remarks: in vivo
# Particulars: rat, po, 25 mg/kg
Measured endpoint: Cmax (ng/mL)
Entry rule: numbers only, all in ng/mL.

# Compound structure string, Cmax (ng/mL)
data = [
    ("O=C(O)c1ccc(NC(=O)[C@@H]2NC3(CCCCC3)[C@@]3(C(=O)Nc4cc(Cl)ccc43)[C@H]2c2cccc(Cl)c2F)cc1", 1550),
]

Enquiry: Determine from records and report Cmax for CC1(C)CCC2(CC1)N[C@@H](C(=O)Nc1ccc(C(=O)O)cc1)[C@H](c1cccc(Cl)c1F)[C@]21C(=O)Nc2cc(Cl)ccc21
Return: 968

###

# Assay remarks: in vivo
# Particulars: rat, po, 25 mg/kg
Measured endpoint: half-life
Please answer using the number first and the unit second.

Known results for compounds:
# Compound, Measured endpoint, Observed
rows = [
    ("CC(C)(C)C[C@@H]1N[C@@H](C(=O)N[C@H]2CC[C@H](O)CC2)[C@H](c2cccc(Cl)c2F)[C@]12C(=O)Nc1cc(Cl)ccc12 [SAR-405838]", "half-life", "1.6 h"),
    ("O=C(NC12CCC(C(=O)O)(CC1)CC2)[C@@H]1NC2(CCCCC2)[C@@]2(C(=O)Nc3cc(Cl)ccc32)[C@H]1c1cccc(Cl)c1F", "half-life", "4.3 h"),
    ("O=C(O)c1ccc(NC(=O)[C@@H]2NC3(CCCCC3)[C@@]3(C(=O)Nc4cc(Cl)ccc43)[C@H]2c2cccc(Cl)c2F)cc1", "half-life", "4 h"),
    ("CN1[C@@H](C(=O)NC23CCC(C(=O)O)(CC2)CC3)[C@H](c2cccc(Cl)c2F)[C@]2(C(=O)Nc3cc(Cl)ccc32)C12CCCCC2", "half-life", "3.9 h"),
    ("CCN1[C@@H](C(=O)NC23CCC(C(=O)O)(CC2)CC3)[C@H](c2cccc(Cl)c2F)[C@]2(C(=O)Nc3cc(Cl)ccc32)C12CCCCC2 [ALRIZOMADLIN]", "half-life", "4.6 h"),
]

Enquiry: Determine from records and report half-life for CC1(C)CCC2(CC1)N[C@@H](C(=O)Nc1ccc(C(=O)O)cc1)[C@H](c1cccc(Cl)c1F)[C@]21C(=O)Nc2cc(Cl)ccc21
Return: 4.5 h

Attribution: ChEMBL document CHEMBL4007507
